Consider the following binders and their measured Kd readings.
study.target: T1, Human Factor P (human, UniProt P27918 29-469)
T1 construct: Bought protein (Complement Technology cat# A139) in SET and Biacore; Factor P of human serum in the functional assays; also called FP; human FP
T1 sequence (P27918 29-469 limits assumed): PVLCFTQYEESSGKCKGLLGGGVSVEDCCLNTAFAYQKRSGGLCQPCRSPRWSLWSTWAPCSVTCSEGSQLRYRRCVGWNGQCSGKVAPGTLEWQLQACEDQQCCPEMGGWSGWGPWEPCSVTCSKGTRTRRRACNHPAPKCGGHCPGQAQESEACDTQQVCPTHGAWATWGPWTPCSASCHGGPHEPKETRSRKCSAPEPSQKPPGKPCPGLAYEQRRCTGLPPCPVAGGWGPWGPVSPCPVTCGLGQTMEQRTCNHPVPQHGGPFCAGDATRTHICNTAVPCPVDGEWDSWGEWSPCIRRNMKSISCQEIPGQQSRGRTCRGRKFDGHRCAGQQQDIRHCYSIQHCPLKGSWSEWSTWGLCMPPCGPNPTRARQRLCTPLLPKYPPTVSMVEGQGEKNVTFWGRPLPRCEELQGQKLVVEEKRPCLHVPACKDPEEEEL
experimental.details: Biacore SPR, captured Factor P
recorded.metric: Kd (nM)

INSERT INTO assay_data (binder, recorded_metric, quantitative_readout) VALUES
  ('NVS965-Q (Fab, V domains shown, NVS965 with heavy chain N30 replaced with glutamine) VH: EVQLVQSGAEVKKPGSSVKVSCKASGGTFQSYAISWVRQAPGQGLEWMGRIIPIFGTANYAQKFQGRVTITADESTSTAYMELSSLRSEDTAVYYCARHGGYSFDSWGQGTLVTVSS VL: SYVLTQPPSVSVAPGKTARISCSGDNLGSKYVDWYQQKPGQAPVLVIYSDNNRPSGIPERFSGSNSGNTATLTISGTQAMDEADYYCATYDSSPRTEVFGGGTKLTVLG', 'Kd', 0.138),
  ('NVS966 (Fab, V domains shown, Disulfide-bridged Fab; also called Fab NVS966) VH: EVQLVQSGAEVKKPGESLKISCKGSGYSFTNYWIGWVRQMPGKGLEWMGRIDPGESLTNYAPSFQGQVTISADKSISTAYLQWSSLKASDTAMYYCARTGVADVDMPFAHWGQGTLVTVSS VL: SYVLTQPPSVSVAPGKTARISCSGDNLGSYYVNWYQQKPGQAPVLVIYGDSERPSGIPERFSGSNSGNTATLTISRAQAGDEADYYCGSWDITSFVFGGGTKLTVLG', 'Kd', 0.16);
